ASSAYED SYSTEM: JAK3 (Homo sapiens, UniProt P52333)
Construct: recombinant purified GST-tagged catalytic domain for each enzyme
Sequence (P52333 822-1111 limits assumed): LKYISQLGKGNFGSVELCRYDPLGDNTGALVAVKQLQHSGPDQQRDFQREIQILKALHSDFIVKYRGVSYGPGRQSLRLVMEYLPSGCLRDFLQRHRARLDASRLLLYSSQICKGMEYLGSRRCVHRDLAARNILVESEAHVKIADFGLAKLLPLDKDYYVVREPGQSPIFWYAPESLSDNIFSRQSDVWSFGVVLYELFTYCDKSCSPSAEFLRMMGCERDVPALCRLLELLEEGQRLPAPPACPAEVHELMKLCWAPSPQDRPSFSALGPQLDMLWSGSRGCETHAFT
EXPERIMENTAL PROTOCOL: Jak Biochemical HTRF Assay (JAK3)
RECORDED CONDITIONS: recombinant purified GST-tagged catalytic domain, [ATP] 2.9 μM, values given as range classes
ENDPOINT LABEL: IC50

CC(C)[C@@H](Nc1cncc(-c2c[nH]c3ncc(COCCN4CCCC4)cc23)c1)C(=O)NCC(F)(F)F [Example 9-1] :: 0.01 to 0.5 µM
CNC(=O)c1cnc2[nH]cc(-c3cncc(N[C@@H](C(=O)NCC(F)(F)F)C(C)C)c3)c2c1 [Example 3-8] :: ≤ 0.01 µM
CC(C)C(Nc1cncc(-c2c[nH]c3ncc(OCC4CCN(C)CC4)cc23)c1)C(=O)NCC(F)(F)F (stereo not drawn) [Example 2-18] :: ≤ 0.01 µM

Prompt: Reported IC50, molecule CC(C)(Nc1cncc(-c2c[nH]c3ncc(Cl)cc23)c1)C(=O)NCC(F)(F)F [Example 1-27] : ____
Response: ≤ 0.01 µM

Prompt: Reported IC50, molecule N#Cc1cnc2[nH]cc(-c3nncc(N4CCCC4c4nccs4)n3)c2c1 (stereo not drawn) [Example 1-12] : ____
Response: 0.01 to 0.5 µM

Prompt: Reported IC50, molecule CC(C)[C@H](Nc1cncc(-c2c[nH]c3ncc(C#N)cc23)c1)C(=O)NCC(F)(F)F [Example 1-41] : ____
Response: ≤ 0.01 µM

Prompt: Reported IC50, molecule CC(C)[C@H](Nc1cncc(-c2c[nH]c3ncc(NC(=O)CO)cc23)c1)C(=O)NCC(F)(F)F [Example 5-7] : ____
Response: ≤ 0.01 µM

Prompt: Reported IC50, molecule C[C@@H](Nc1cncc(-c2c[nH]c3ncc(C#N)cc23)c1)C(=O)NCC(F)(F)F [Example 1-32] : ____
Response: ≤ 0.01 µM

Prompt: Reported IC50, molecule CC(C)[C@@H](Nc1cncc(-c2c[nH]c3ncc(C(=O)NC4CCOCC4)cc23)c1)C(=O)NCC(F)(F)F [Example 3-5] : ____
Response: ≤ 0.01 µM

Prompt: Reported IC50, molecule O=C(NCC(F)(F)F)[C@H]1CCCC[C@H]1Nc1cncc(-c2c[nH]c3ncc(Cl)cc23)c1 [Example 1-33] : ____
Response: ≤ 0.01 µM
